- assay-protocol: IV pharmacokinetics
- Format: in vivo, Sprague Dawley rats
- condition-notes: rat, intravenous 2 mg/kg, normal saline (* in 5% NMP, 5% Solutol HS, 90% normal saline)
experimental-readout: CI (mL/min/kg)

| molecule | numeric-value |
| --- | --- |
| CC1CCC2(CC1)CN(C(CO)C(=O)O)C2=O (single isomer, unassigned) | 19.38 |
| CCN(Cc1ccccc1)C1CCC2(CC1)CNC2=O (stereo not drawn) | 41.98 |
| O=C1NCC12CCCCC2 [Compound AB, 2-azaspiro[3.5]nonan-1-one] | 16.1 |
| CN(Cc1ccccc1)C1CCC2(CC1)CNC2=O (stereo not drawn) | 27.44 |
| C[C@@H](O)[C@@H](C(N)=O)N1CC2(CCCCC2)C1=O | 84.91 |
| CC1CCC2(CC1)CNC2=O (racemic) [Compound AD, 7-methyl-2-azaspiro[3.5]nonan-1-one] | 24.57 |
| CC1CCC2(CC1)CN(CC(N)=O)C2=O (stereo not drawn) | 145.13 |
| O=C1NCC12CCC(OCc1ccccc1)CC2 (single isomer, unassigned) [AI, 7-(benzyloxy)-2-azaspiro[3.5]nonan-1-one] | 26.19 |
| COc1ccc(CN2CC3(CCC(O)CC3)C2=O)cc1 (stereo not drawn) | 51.36 |

====

- Tested on: Sprague Dawley rats
- assay-protocol: Bennett model of mechanical analgesia (sciatic nerve chronic constriction, paw withdrawal threshold);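 note: log paw withdrawal threshold scaled from vehicle group mean (0%) to naive 15 g value (100%)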
- Type: in vivo, rat
- condition-notes: 10 mg/kg PO, 1 wk
Would you mind labelling by % analgesia? At or over 20% is fulfilled, under is not fulfilled.

| compound | assigned-label |
| --- | --- |
| C[C@@H](O)[C@H](NC1CCC2(CC1)CNC2=O)C(N)=O (single isomer, unassigned) | not fulfilled |
| O=C1NCC12CCC(O)CC2 (stereo not drawn) [AL, 7-hydroxy-2-azaspiro[3.5]nonan-1-one] | not fulfilled |
| CC1CCC2(CC1)CNC2=O (racemic) [Compound AD, 7-methyl-2-azaspiro[3.5]nonan-1-one] | not fulfilled |
| C[C@@H](O)[C@@H](C(N)=O)N1CC2(CCC(F)(F)CC2)C1=O | not fulfilled |
| O=C1NCC12CCC(OCc1ccccc1)CC2 (single isomer, unassigned) [AI, 7-(benzyloxy)-2-azaspiro[3.5]nonan-1-one] | fulfilled |
| COc1ccc(CN2CC3(CCC(O)CC3)C2=O)cc1 (stereo not drawn) | not fulfilled |

====

- assay-protocol: oral pharmacokinetics (plasma, brain, CSF)
- Assay type: in vivo, Sprague Dawley rats
- condition-notes: Sprague-Dawley, rat, plasma, po, 10 mg/kg, per os 10 mg/kg, plasma, read-out: Cmax
experimental-readout: Cmax (ng/mL)

| molecule | numeric-value |
| --- | --- |
| NC(=O)C(CO)N1CC2(CCCCC2)C1=O (single isomer, unassigned) | 6520 |
| CC1CCC2(CC1)CN([C@H](C(N)=O)[C@@H](C)O)C2=O (mixture of isomers) | 4330 |
| O=C1NCC12CCC(O)CC2 (stereo not shown) [AL, 7-hydroxy-2-azaspiro[3.5]nonan-1-one] | 9480 |
| CC1CCC2(CC1)CN(C(CO)C(=O)O)C2=O (single isomer, unassigned) | 1490 |

====

Quick reference for Emax among some molecules
- system: NMDAR2B (Homo sapiens, UniProt Q13224)
- Construct: expressed in transfected cells; host or cells: HEK cells (membrane extract)
- Sequence (Q13224 27-1484, species assumed, other chains not shown): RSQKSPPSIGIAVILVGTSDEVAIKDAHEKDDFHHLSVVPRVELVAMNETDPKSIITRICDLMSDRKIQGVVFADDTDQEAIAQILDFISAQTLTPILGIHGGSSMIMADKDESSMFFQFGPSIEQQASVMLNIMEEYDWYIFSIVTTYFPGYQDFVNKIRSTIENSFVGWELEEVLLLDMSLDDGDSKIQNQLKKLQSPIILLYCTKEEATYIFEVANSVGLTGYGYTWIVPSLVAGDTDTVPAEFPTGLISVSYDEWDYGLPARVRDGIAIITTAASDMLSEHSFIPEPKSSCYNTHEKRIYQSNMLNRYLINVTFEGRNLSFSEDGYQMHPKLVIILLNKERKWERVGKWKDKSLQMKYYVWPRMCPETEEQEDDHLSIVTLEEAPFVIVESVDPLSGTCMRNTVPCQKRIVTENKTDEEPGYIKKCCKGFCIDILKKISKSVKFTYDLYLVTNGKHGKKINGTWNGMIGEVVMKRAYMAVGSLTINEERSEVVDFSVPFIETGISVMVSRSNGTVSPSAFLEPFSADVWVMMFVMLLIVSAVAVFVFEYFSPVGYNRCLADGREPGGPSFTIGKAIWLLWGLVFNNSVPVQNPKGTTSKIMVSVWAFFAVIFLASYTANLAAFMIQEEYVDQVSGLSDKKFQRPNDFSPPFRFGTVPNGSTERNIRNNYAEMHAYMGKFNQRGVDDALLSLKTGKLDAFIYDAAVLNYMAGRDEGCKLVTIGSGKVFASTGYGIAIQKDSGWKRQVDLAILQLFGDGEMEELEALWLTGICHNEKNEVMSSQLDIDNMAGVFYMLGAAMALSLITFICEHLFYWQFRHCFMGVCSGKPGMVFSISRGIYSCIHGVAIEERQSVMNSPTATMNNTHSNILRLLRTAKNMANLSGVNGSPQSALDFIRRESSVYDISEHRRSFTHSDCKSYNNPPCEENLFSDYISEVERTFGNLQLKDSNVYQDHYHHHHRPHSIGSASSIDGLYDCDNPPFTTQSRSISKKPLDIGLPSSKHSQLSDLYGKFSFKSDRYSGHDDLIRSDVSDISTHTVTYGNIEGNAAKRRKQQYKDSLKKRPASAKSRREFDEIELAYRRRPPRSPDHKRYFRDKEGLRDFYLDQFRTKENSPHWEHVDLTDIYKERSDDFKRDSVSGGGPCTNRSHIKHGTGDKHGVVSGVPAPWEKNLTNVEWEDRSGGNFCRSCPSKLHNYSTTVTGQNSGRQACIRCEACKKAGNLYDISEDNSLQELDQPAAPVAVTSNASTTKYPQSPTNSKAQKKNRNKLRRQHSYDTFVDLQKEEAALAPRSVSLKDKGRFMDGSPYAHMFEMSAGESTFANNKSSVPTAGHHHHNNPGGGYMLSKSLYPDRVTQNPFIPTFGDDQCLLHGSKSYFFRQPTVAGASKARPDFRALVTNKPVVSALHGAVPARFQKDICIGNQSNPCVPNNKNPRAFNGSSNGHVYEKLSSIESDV
- assay-protocol: [3H]MK-801 binding in NMDAR expressing HEK cell membranes (facilitation of NMDAR activation)
- Format: biochemical
- condition-notes: 0.25 h, 50 μM glutamate, read-out: A: % maximal [3H]MK-801 binding relative to 1 mM glycine
experimental-readout: Emax

| molecule | result |
| --- | --- |
| C[C@@H](O)[C@@H](C(N)=O)N1CC2(CCC(F)(F)CC2)C1=O | < 100% |
| COc1ccc(CN2CC3(CCC(O)CC3)C2=O)cc1 (stereo not drawn) | < 100% |
| O=C1NCC12CCC(OCc1ccccc1)CC2 (single isomer, unassigned) [AI, 7-(benzyloxy)-2-azaspiro[3.5]nonan-1-one] | < 100% |
| NC(=O)C(CO)N1CC2(CCCCC2)C1=O (single isomer, unassigned) | < 100% |
| O=C1N(OCc2ccccc2)CC12CCC(O)CC2 (stereo not drawn) | 0% |
| CC1CCC2(CC1)CNC2=O (racemic) [Compound AD, 7-methyl-2-azaspiro[3.5]nonan-1-one] | < 100% |
| O=C1NCC12CCCCC2 [Compound AB, 2-azaspiro[3.5]nonan-1-one] | < 100% |
| CC1CCC2(CC1)CN(CC(N)=O)C2=O (stereo not drawn) | 0% |
| C[C@@H](O)[C@H](NC1CCC2(CC1)CNC2=O)C(N)=O (single isomer, unassigned) | < 100% |

The measured values listed here are drawn from patent US10961189B2.
